Values compiled from PubChem BioAssay (EPA / NIEHS).

- TEST DESCRIPTION: ATG_GRE_CIS: Attagene CIS-FACTORIAL HepG2 Assay for human Glucocorticoid Response Elements (GRE) (AID 2282947)
- CONDITION SET: HepG2 GRE cis-reporter, Attagene multiplex mRNA; actives raise or lower the signal
Active and inactive are the calls of the source. Rule for the calls: active = hit-call score of the fitted dose curve at least 0.9, where 1 is the maximum; inactive = score below 0.9.
Lab note: assign the record to one of 1 (yes) for active, 0 (no) for inactive

// below: answered compounds
>>> df
                                   compound  class_label
0               O=C(C=Cc1ccccc1)OCCc1ccccc1       0 (no)
1  CCC(=O)C1CC(C(C)C)CC=C1C (stereo unspecified)       0 (no)
2                   Nc1nc(N)nc(-c2ccccc2)n1       0 (no)
3                  Oc1ccc(-c2ccccc2)c(Cl)c1       0 (no)
4                        CCN(CC)c1cccc(C)c1       0 (no)
5  O=c1c(O)c(-c2ccc(O)cc2O)oc2cc(O)cc(O)c12       0 (no)
6                        CC(C)CCCCCOC(=O)CS       0 (no)
7  CC(=O)OC1CCCCC1C(C)(C)C (stereo unspecified)       0 (no)
8                  O=C(OCCc1ccccc1)c1ccccc1       0 (no)
9                   Cc1cc(=O)[nH]c(=O)[nH]1       0 (no)

// param item: `O=C(O)c1ccc2c(c1)C(=O)OC2=O` ; yields the recorded call
0 (no)

// param item: C=CC(=O)OCC(C)OCC(C)OCC(C)OC(=O)C=C (stereo unspecified) ; yields the recorded call
0 (no)

// param item: `CCCCCCCCCCCC(=O)N(C)CC(=O)O` ; yields the recorded call
0 (no)

// param item: `CCOc1ccc(NC(N)=O)cc1` ; yields the recorded call
0 (no)

// param item: `O=C(Nc1ccccc1)c1cc(Cl)ccc1O` ; yields the recorded call
0 (no)
